# system.tested: human pancreatic lipase (Homo sapiens)
# Construct: PL from the human pancreas (triacylglycerol acyl hydrolase, EC 3.1.1.3); from tissue; host or cells: human pancreas
# Sequence (P16233 17-465): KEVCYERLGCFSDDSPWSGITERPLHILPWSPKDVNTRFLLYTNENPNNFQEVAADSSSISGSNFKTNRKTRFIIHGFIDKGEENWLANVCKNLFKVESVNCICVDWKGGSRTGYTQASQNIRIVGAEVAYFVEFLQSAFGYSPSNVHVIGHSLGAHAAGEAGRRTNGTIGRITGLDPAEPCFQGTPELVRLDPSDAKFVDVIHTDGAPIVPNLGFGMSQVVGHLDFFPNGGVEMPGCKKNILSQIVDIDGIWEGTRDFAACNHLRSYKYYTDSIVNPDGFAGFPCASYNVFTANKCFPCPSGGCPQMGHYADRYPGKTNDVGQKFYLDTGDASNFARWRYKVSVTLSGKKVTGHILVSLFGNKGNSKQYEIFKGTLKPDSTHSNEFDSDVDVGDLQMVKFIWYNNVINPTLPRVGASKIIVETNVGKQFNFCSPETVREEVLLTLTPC
# protocol.text: In vitro assay using human pancreatic lipase (4-MUO hydrolysis, fluorometric);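 note: Read-out is the initial rate of fluorescent 4-MU release as HPL cleaves the 4-MUO substrate, a rate that scales with the amount of enzyme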
# Format: biochemical
# settings: at 25 μM; read-out: PL Inhibition (%) ± SEM, Human
Exercise: for every item that follows, state its recorded inhibition at 25 µM.

The examples below pair each entry with its known result.
structure.notation: O=c1cc(-c2ccc(O)cc2)oc2cccc(O)c12
inhibition at 25 µM: < 30%

structure.notation: O=c1cc(-c2cccc(O)c2)oc2cccc(O)c12
inhibition at 25 µM: 32.3%

structure.notation: O=c1c(O)c(-c2ccc(O)c(O)c2)oc2c(O)c(O)ccc12
inhibition at 25 µM: < 30%

Kindly consider the entry below.
query: Please indicate inhibition at 25 µM recorded for O=c1cc(-c2ccc(O)cc2)oc2ccccc12
result: < 30%

###

# system.tested: porcine pancreatic lipase (Sus scrofa)
# Sequence (P00591 whole entry): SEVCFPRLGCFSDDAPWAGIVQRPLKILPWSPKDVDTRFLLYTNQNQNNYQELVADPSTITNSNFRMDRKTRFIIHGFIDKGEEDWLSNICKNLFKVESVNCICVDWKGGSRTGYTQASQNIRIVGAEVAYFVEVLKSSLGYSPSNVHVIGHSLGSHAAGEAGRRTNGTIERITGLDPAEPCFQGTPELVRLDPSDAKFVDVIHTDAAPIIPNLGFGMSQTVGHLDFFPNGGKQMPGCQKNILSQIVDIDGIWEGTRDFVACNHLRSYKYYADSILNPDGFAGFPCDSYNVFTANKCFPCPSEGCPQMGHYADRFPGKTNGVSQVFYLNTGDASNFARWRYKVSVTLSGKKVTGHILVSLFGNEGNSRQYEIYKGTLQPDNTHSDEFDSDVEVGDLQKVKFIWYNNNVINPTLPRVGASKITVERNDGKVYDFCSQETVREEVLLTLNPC
# protocol.text: In vitro assay using porcine pancreatic lipase (4-MUO hydrolysis, fluorometric);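 note: product 4-methylumbeliferone formation tracked fluorometrically, catalytic rate from RFU slope over the 10–30 min window, compounds checked beforehand for own fluorescence, at least three independent experiments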
# settings: read-out: PL Inhibition (%) ± SEM, Porcine
For each record, write down the corresponding inhibition at 50 µM.

Field: example entries. Status: answers known.
compound: O=c1c(O)c(-c2ccc(O[C@@H]3O[C@H](CO)[C@@H](O)[C@H](O)[C@H]3O)c(O)c2)oc2cc(O)cc(O)c12 [Flavonoid 34, Spiraeoside]
measured.endpoint: inhibition at 50 µM
test.value: < 30%
--
compound: O=c1cc(-c2ccccc2)oc2cccc(O)c12 [Flavonoid 5]
measured.endpoint: inhibition at 50 µM
test.value: < 30%
--
compound: O=c1c(O)c(-c2ccc(O)cc2)oc2c(O)c(O)ccc12 [Flavonoid 44]
measured.endpoint: inhibition at 50 µM
test.value: 42%

Could you tell me inhibition at 50 µM for each of these compounds? They are listed below.
1. O=c1cc(-c2ccc(O)c(O)c2)oc2c(O)c(O)ccc12 [Flavonoid 43]
2. O=c1cc(-c2ccccc2)oc2cc(O)cc(O)c12 [Flavonoid 13, Chrysin]
3. O=c1cc(-c2ccccc2)oc2cc(O)ccc12 [Flavonoid 9]
4. O=c1c(O)c(-c2ccc(O)c(O)c2)oc2cc(O[C@@H]3O[C@H](CO)[C@@H](O)[C@H](O)[C@H]3O)cc(O)c12 [Flavonoid 33, Quercimeritrin]
5. O=c1cc(-c2ccc(O)c(O)c2)oc2cccc(O)c12 [Flavonoid 8]
6. O=c1c(OC2OC(CO)C(O)C(O)C2O)c(-c2ccc(O)c(O)c2)oc2cc(O)cc(O)c12 (stereo not shown) [Flavonoid 31]
7. O=c1c(O)c(-c2ccc(O)c(O)c2)oc2ccccc12 [Flavonoid 18]

result:
< 30%
< 30%
< 30%
< 30%
46%
< 30%
41%

State recorded inhibition at 50 µM for all listed compounds.
1. O=c1c(O)c(-c2ccccc2)oc2cc(O)cc(O)c12 [Flavonoid 23, Galangin]
2. O=c1c(O[C@@H]2O[C@H](CO)[C@@H](O)[C@H](O)[C@H]2O)c(-c2ccc(O)cc2)oc2cc(O)cc(O)c12 [Flavonoid 25, Astragalin]

result:
["41%", "< 30%"]

Would you mind listing inhibition at 50 µM for each of the following compounds?
1. O=c1c(OC2OC(CO)C(O)C(O)C2O)c(-c2ccc(OC3OC(CO)C(O)C(O)C3O)c(O)c2)oc2cc(O)cc(O)c12 (stereo not shown) [Flavonoid 35]
2. C[C@@H]1O[C@@H](OC[C@H]2O[C@@H](Oc3c(-c4ccc(O)c(O)c4)oc4cc(O)cc(O)c4c3=O)[C@H](O)[C@@H](O)[C@@H]2O)[C@H](O)[C@H](O)[C@H]1O [Flavonoid 32, Rutin]
3. O=c1c(O)c(-c2ccc(O)cc2)oc2c(O)c(O)cc(O)c12 [Flavonoid 46, Herbacetin]
4. O=c1c(O)c(-c2ccc(O)c(O)c2)oc2c(O)c(O)cc(O)c12 [Flavonoid 47, Gossypetin]

result:
1: < 30%; 2: < 30%; 3: 46%; 4: 36%
